test.target: MMP-12 (Homo sapiens, UniProt P39900)
Construct: purchased Enzo Life Science, Farmingdale, NY
Sequence (P39900 106-470): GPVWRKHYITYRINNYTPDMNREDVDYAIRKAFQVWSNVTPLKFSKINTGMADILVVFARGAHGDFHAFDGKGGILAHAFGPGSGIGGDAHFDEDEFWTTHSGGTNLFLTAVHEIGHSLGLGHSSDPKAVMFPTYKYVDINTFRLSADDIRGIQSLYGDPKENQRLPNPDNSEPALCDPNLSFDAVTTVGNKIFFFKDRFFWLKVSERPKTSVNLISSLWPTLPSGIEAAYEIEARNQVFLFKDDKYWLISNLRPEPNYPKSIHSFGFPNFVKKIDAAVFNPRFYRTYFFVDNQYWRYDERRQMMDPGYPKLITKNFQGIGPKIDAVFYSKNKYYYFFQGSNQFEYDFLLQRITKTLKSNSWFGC
assay.overview: fluorimetric MMP inhibitor profiling, MMP-12
Format: biochemical
cond: 30 minutes preincubation, fluorogenic substrate
reported.metric: IC50 (nM)
Value expressed in nM; do not type the unit.

For CNC(=O)[C@H](Cc1ccccc1)NC(=O)[C@H](CC(C)C)[C@H](CSc1cccs1)C(=O)NO , what is its reported IC50?
12
